Where do these numbers come from? They come from ChEMBL document CHEMBL5606458.

Target: Nonstructural protein 3 (Zika virus) (UniProt A0A024AXB9)
Sequence (A0A024AXB9 as listed by the source): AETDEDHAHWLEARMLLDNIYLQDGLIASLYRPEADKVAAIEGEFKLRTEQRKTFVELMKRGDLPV
Conditions: PRVABC59, Concentration 50.0 uM, Number of replicates 1.0
Description: Functional biochemical assay to identify treatments for viral infectious disease that targets Zika NS2B-NS3 protease. Utilizing a direct enzyme activity measurement method, reading the fluorescence intensity is used to characterize the relative potency of inhibitors as % inhibition.
The whole screen tested about 2,700 compounds, of which about 160 (5.9%) showed an effect of 50% or more. Shown is part of a subset that was picked to be rich in strong results.
Listed below: inhibition values for each entry.
Give the value, in units of %, as a plain number.

Lab note: measured inhibition of `NC(=O)C1(N2CCCCC2)CCN(C(=O)C2CCN(c3ccc(C=O)cc3)CC2)CC1` was 55.7

Lab note: measured inhibition of `O=Cc1ccc(N2CCC(C(=O)N3CCN(CCc4ccccc4)CC3)CC2)cc1` was 37.9

Lab note: measured inhibition of `CCn1ccnc(N2CC[C@H](C#N)C2)c1=O` was 9.92

Lab note: measured inhibition of `N#Cc1ccc(NC(=O)C2CCN(c3ccc(C=O)cc3)CC2)cc1Br` was 22.8

Lab note: measured inhibition of `O=Cc1ccc(N2CCC(C(=O)Nc3ncc(Br)cc3O)CC2)cc1` was 63.3

Lab note: measured inhibition of `O=Cc1ccc(N2CCC(C(=O)NC[C@H](O)c3ccc(O)c(O)c3)CC2)cc1` was 37

Lab note: measured inhibition of `CS(=O)(=O)c1ccc(N2CCN(C(=O)C3CCN(c4ccc(C=O)cc4)CC3)CC2)c([N+](=O)[O-])c1` was 38.3
